Each entry below carries its reported pKd.
# target_or_test_system: T1, Soluble E2 (sE2), amino acids 384 to 661 of HCV genotype 1a strain H77 (Hepatitis C virus genotype 1a, H77, UniProt P27958)
# T1 construct: source: High Five insect cells, recombinant baculovirus, secreted, purified (Ni-nitrilotriacetic acid chromatography)
# T1 sequence (P27958 384-661): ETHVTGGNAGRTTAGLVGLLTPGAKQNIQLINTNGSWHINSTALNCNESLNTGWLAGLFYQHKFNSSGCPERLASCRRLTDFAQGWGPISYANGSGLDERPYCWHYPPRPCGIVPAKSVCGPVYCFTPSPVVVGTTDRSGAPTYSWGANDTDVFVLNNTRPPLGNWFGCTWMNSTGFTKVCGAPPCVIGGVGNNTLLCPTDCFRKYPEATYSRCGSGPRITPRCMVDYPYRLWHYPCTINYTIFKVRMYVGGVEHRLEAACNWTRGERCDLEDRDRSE
# method_summary: SPR; Biacore 3000, sE2 immobilised on CM5 by amine coupling; MAbs or Fabs injected; HBS pH 7.2, 25°C, 20 μl/min; 1:1 Langmuir fit
# test_parameters: both partners purified
# pKd = -log10(concentration in molar units)

See these solved cases before continuing.
binder	pKd
Fab fragment of the C2 antibody (Fab, V domains shown, source: papain digestion of purified IgG; Fc removed on protein G, gel filtration) VH: EVQLQQPGAELVRPGGSVKLSCKASGYSFTTYWMNWVKQRPGQGLEWIGMIQPSDSETRLNQKFKDKATLTLDRSSSTVYMQLSSPTSDDSAVYYCARTGRGDAWLTYWGQGTSVTVSS VL: NIVLTQSPVSLAVSLGQRATISCRASKSVSTSGYSYMHWYQQKPGQPPRLLLYLGSNLESGVPARFSGSGSGTDFTLNIHPVEEEDAATYYCQHIRELTRSFGGGTKLEIK	6.52
Fab fragment of AP33 (Fab, V domains shown, source: papain digestion of purified IgG; Fc removed on protein G, gel filtration) VH: EVQLQESGPSLVKPSQTLSLTCSVTGDSITSGYWNWIRKFPGNKLEYMGYISYSGSTYYNLSLRSRISITRDTSKNQYYLQLNSVTTEDTATYYCALITTTTYAMDYWGQGTSVTVSS VL: NIVLTQSPVSLAVSLGQRATISCRASESVDGYGNSFLHWFQQKPGQPPKLLIYLASNLNSGVPARFSGSGSRTDFTLTIDPVEADDAATYYCQQNNVDPWTFGGGTKLEIK	9.14
MAb AP33 (broadly neutralizing mouse monoclonal antibody) (antibody, V domains shown) VH: EVQLQESGPSLVKPSQTLSLTCSVTGDSITSGYWNWIRKFPGNKLEYMGYISYSGSTYYNLSLRSRISITRDTSKNQYYLQLNSVTTEDTATYYCALITTTTYAMDYWGQGTSVTVSS VL: NIVLTQSPVSLAVSLGQRATISCRASESVDGYGNSFLHWFQQKPGQPPKLLIYLASNLNSGVPARFSGSGSRTDFTLTIDPVEADDAATYYCQQNNVDPWTFGGGTKLEIK	9.85

Attention now shifts to the item below.
Record MAb C2 (mouse monoclonal antibody against C-epitope I) (antibody, V domains shown, source: also used as hybridoma supernatant) VH: EVQLQQPGAELVRPGGSVKLSCKASGYSFTTYWMNWVKQRPGQGLEWIGMIQPSDSETRLNQKFKDKATLTLDRSSSTVYMQLSSPTSDDSAVYYCARTGRGDAWLTYWGQGTSVTVSS VL: NIVLTQSPVSLAVSLGQRATISCRASKSVSTSGYSYMHWYQQKPGQPPRLLLYLGSNLESGVPARFSGSGSGTDFTLNIHPVEEEDAATYYCQHIRELTRSFGGGTKLEIK , field pKd: 7.30
